- Test system: PANC 05.04
- RUN_DESCRIPTION: In vitro cytotoxicity on pancreatic cancer cell line (Example 12)
- Type: cell-based, human
- Method: Various cancer cell lines were obtained from the American Type Culture Collection (ATCC)). The cells were cultured in a humidified 5% CO2 incubator in a media consisting of RPMI 1640, L-glutamine, and 10% FBS. The cells were passaged as needed using standard tissue culture techniques. […] The Cell TiterGlo-containing plates were then read on a SpectroMax® iD3 Multi-Mode Microplate reader (Molecular Devices, LLC, San Jose, Calif.). The degree of luminescence was dictated by the abundance of live cells.
pIC50: −log10 of the molar value.
QUANTITY_NAME: pIC50

• CC(=O)O[C@@H](C)/C=C\C(=O)N[C@@H]1C[C@H](C)[C@H](C/C=C(C)/C=C/[C@H]2O[C@H](CC(=O)O)C[C@@]3(CO3)[C@@H]2O)O[C@@H]1C = 8.52

The origin of these recorded values is patent US20200216463A1.
